Values were extracted from PubChem BioAssay (NCI).

# Tested on: SK-OV-3 ovarian
# test: NCI-60 one-dose screen, 48 h (100 = growth as untreated, 0 = no growth, -100 = all killed)
# condition_set: 10 µM unless noted
This is part of a sample that, as a whole, favours compounds with a hit. Of some 83,000 tested, about 20% had one in any assay.
parameter: growth (%)
Give your result in % as a bare value.

Supply measured growth of "COc1ccc(Nc2nnc(-c3ccc(OC)c(OC)c3)o2)cc1" in your reply. 98

Specify measured growth for "N#CC1=C(N)Oc2c(c(=O)[nH]c3ccc(Cl)cc23)C12C(=O)c1ccccc1C2=O" . 101

Recall and state the measured growth for "O=C(NCCNc1nccc(Nc2ccc(S(=O)(=O)Nc3ccccn3)cc2)n1)c1cccc([N+](=O)[O-])c1" . 100

Could you please provide reported growth for "COc1ccccc1N1CCCCC1" ? Thanks! 100

Identify growth associated with the compound "O=C1/C=C/[C@@H](O)[C@@H]2C[C@@H](O)C[C@H]2/C=C/CCC[C@H](CCc2ccccc2)O1" 28.2

----------
# Test system: SW-620 colon
# test: NCI-60 one-dose screen, 48 h
# condition_set: 10 µM unless noted
About 83,000 compounds went through this panel and 20% of them were active in at least one assay; those are over-represented in the sample as a whole. Activity calls are given as the source filed them. How the source made its calls: active means growth percent below 10; inactive means the rest.
Thanks in advance; please answer with one of these: active, inactive

Identify the outcome logged in this assay for the molecule shown: "COC(=O)c1c2c(c(C)[n+]([O-])c1C)C(=O)C(NCc1cccc(OC)c1)=CC2=O" active

Please share the test call associated with "CCn1c(SCC(=O)N/N=C(\C)c2ccc(Cl)cc2)nc2c1c(=O)n(C)c(=O)n2C" . inactive

Status in this test for "C=C1C(=O)O[C@H]2[C@H]1CC/C(Cn1cc(-c3ccccc3)nn1)=C\CC[C@@]1(C)O[C@@H]21" ? active

GET /call?item= "Fc1cc2c(cc1Cl)N(c1ncnc3ccc(-c4ccc5n[nH]nc5c4)cc13)CC2" returns the recorded outcome of this test. inactive

Lab log entry: "Cc1[nH]c(C(=O)Nc2ccccc2OC2CCNCC2)c(Cl)c1Cl" — outcome as called in the assay? active

In this assay, the call recorded for "Cc1ccc(C[P+](c2ccccc2)(c2ccccc2)c2ccccc2)cc1" was what? inactive

Would you mind telling me which call this test gave "COc1ccc(C2=C(Nc3ccc(C(=O)Nc4ccccc4)cc3)C(=O)N(C)C2=O)cc1" ? inactive

Each molecule tested received a call. Report the one for "c1ccc2cc(C[n+]3ccn(CCCCCCCCCCn4cc[n+](Cc5ccc6ccccc6c5)c4)c3)ccc2c1" . inactive

Please indicate how the test categorized "CCOC(=O)c1c(NC(=O)c2cccc(C(F)(F)F)c2)sc2c(CN(C)C)c(O)ccc12" . active

Entry "CNc1nnc2n(-c3ccccc3)c(=O)c3cnn(-c4ccccc4)c3n12" : call = ? inactive

Dear colleague, could you share the recorded outcome for "CCOC(=O)c1c(NC(=O)c2ccc(Cl)cc2)sc2c(CN(C)C)c(O)ccc12" when you have a moment? inactive

Please share the test call associated with "O=C(CN1C(=O)S/C(=C\C(Cl)=C\c2ccccc2)C1=O)NCCc1ccc(O)cc1" . active

Would you mind telling me which call this test gave Cc1nc2sc(C(=O)Nc3cccc4ccccc34)c(N)c2cc1C(O)c1ccccc1 (centres undefined) ? inactive

Which outcome did this test record for the molecule "CCN1CCN(C(=O)[C@]23CCC(C)(C)C[C@@H]2C2=CC[C@@H]4[C@@]5(C)CCC(=O)C(C)(C)[C@@H]5CC[C@@]4(C)[C@]2(C)CC3)CC1" ? inactive

Call for entry "O=C(Nc1ccccc1O)c1ccc(CNC(=O)c2sccc2Nc2ccnc(C(F)(F)F)c2)cc1" : inactive

Assay result, entry "Nc1nc2ccccc2c2c1S(=O)(=O)c1ccc(Cl)cc1C2=O" — outcome? active

Which outcome was entered for the molecule "COc1ccc(-c2cc(-c3cccnc3)nc3sc4c(=O)[nH]c(-c5ccc(Cl)cc5)nc4c23)cc1OC" in this test? inactive

Tell me the recorded outcome of this test for "O=C(CSC(=S)n1cnnc1)NC(=O)c1ccccc1" . inactive

Any idea what this test logged for "Clc1cccc(Nc2ncnc3ccc(-c4cnc5[nH]ccc5c4)cc23)c1" ? inactive

----------
Please provide measured growth for the entries that follow.
# Tested on: HCT-15 colon
# test: NCI-60 one-dose screen, 48 h (100 = growth as untreated, 0 = no growth, -100 = all killed)
# condition_set: 10 µM unless noted
# Method: Growth inhibition of the HCT-15 human tumor cell line is measured as a screen for anti-cancer activity. Cells are grown in 96 well plates and exposed to the test compound for 48 hours. Compounds are tested at a single concentration, which is 10^-5 M for most compounds. The reported endpoint is percent growth (GI% or GIPRCNT), where numbers from 0 - 100% represent growth inhibition, and numbers from -100% - 0 represent cell death. For example, a value of 40 represents 60% growth inhibition. […]
The panel holds about 83,000 compounds, 20% with a hit somewhere; the sample as a whole holds those more often.
Please respond with the number in % and leave the unit unwritten.

Identify measured growth corresponding to "c1ccc2cc(C[n+]3ccn(CCCCCCCCCCn4cc[n+](Cc5ccc6ccccc6c5)c4)c3)ccc2c1" 50.5

Tell me its growth given "COC1=CC(c2ccc[nH]2)=N/C1=C\c1[nH]c(C)c(CC(=O)OCc2ccccc2)c1CCC(=O)OCc1ccccc1" as the entry. -56.7

Return reported growth. Input molecule: "CCSc1nc2scc(C)c2c(=O)[nH]1" 104

Identify the reported growth for the following entry. "COc1cc(-c2cncn2-c2ccc(-c3nc4ccc(F)cc4s3)cc2)ccc1F" 30.5

Using the record for "Cn1cc(-c2nonc2-c2cn(C)c3ccccc23)c2ccccc21" , state its measured growth. 30.2

Return growth (reported value) for this molecule: N#CC1=C(N)Oc2c(ccc3ccccc23)C1c1ccccc1 (stereo unspecified) 8.12

Give a short answer stating reported growth for "C#CCOC(=O)/C=C/c1cn(-c2ccccc2)nc1-c1ccc(OC)cc1" . 94.1

Give growth for the following molecule: COc1cc2c(c(OC)c1OC)CCC(c1cccc(NC(=O)c3ccc(Br)cc3)c1)O2 (stereo unspecified) 85.2

Query growth for "Cc1ccc(-c2nc(N3CCCNCC3)c3oc(-c4ccccc4)nc3n2)cc1" -85.1

For the molecule "Cc1ccc2c(n1)C(=O)C(Br)=C(CC(C)C)C2=O" , give its measured growth value. 104

Look up and state reported growth for "COc1cc(OCc2cccc(Br)c2C)cc(OC)c1C=O" 80.6

----------
# System: ACHN renal
# test: NCI-60 one-dose screen, 48 h (100 = growth as untreated, 0 = no growth, -100 = all killed)
# condition_set: 10 µM unless noted
This is part of a sample that, as a whole, favours compounds with a hit. Of some 83,000 tested, about 20% had one in any assay.
growth of 90% or higher: Condition met. Under 90%: Condition not met.

Hello, I need to know if "COC12C=C/C(=C(/C(=O)OCc3ccncc3)C(=O)CCCCCCCCC3(OC)C=C/C(=C(/C(=O)OCc4ccncc4)C(=O)CCCCCCCC1)O3)O2" has measured growth not below 90%. Thanks! Condition not met

# bool: growth of "COc1ccc(C(=O)C/C(=C\c2ccc(Cl)cc2)C(=O)NCc2ccccc2)cc1" >= 90% Condition met

hey, is growth for this one >= 90%? "COc1cc(/C=C2/C=C(c3ccccc3)N(CCc3ccc(S(N)(=O)=O)cc3)C2=O)cc(OC)c1OC" Condition met

Identify whether the reported growth of the following compound is 90% or greater: N#CC1=C(N)Oc2c(sc3c(Br)cccc23)C1c1ccc(Cl)cc1 (centres undefined) Condition not met

Can "O=C(/C=C/c1cccc(Cl)c1)c1cccc(OCCCOc2cccc(C(=O)/C=C/c3cccc(Cl)c3)c2)c1" be said to have growth at or above 90%? Condition met

Record "O=C(/C=C(/C=C/c1ccc2[nH]ccc2c1)OB(F)F)/C=C/c1ccc2[nH]ccc2c1" ; criterion: growth no lower than 90%. Met? Condition not met

Item "Cc1cc(N2CCN(CCNc3ccnc4cc(Cl)ccc34)CC2)nc(N2CCOCC2)n1" with growth of 90% or above? Condition not met

Item "Nc1nc2ccccc2c2c(=O)c3cccc(Cl)c3sc12" with growth of 90% or above? Condition not met

Record "C=C1C(=O)O[C@H]2[C@H]1CC/C(Cn1cc(-c3ccccc3)nn1)=C\CC[C@@]1(C)O[C@@H]21" ; criterion: growth no lower than 90%. Met? Condition not met

----------
Exercise: state measured growth for each of the molecules provided.
# Test system: SNB-19 CNS
# test: NCI-60 one-dose screen, 48 h (100 = growth as untreated, 0 = no growth, -100 = all killed)
# condition_set: 10 µM unless noted
This is part of a sample that, as a whole, favours compounds with a hit. Of some 83,000 tested, about 20% had one in any assay.
The reply should contain only the number, in %.

// Input: "CN(/C(N)=N/N=C/c1c2ccccc2cc2ccccc12)C1CCCCC1" . Output its growth only. 71.5

Tell me its growth given "NS(=O)(=O)c1ccccc1NC(=O)Nc1nc2ccccc2s1" as the entry. 98

Quote growth reported for "c1ccc(Cn2cc3c(c2)-c2oncc2CC3)cc1" please. 35.7

Let me know recorded growth for COC1/C=C/OC2(C)Oc3c(C)c(O)c4c(O)c(c(/C=N/Nc5ccc([N+](=O)[O-])cc5[N+](=O)[O-])c(O)c4c3C2=O)NC(=O)C(C)=C/C=C/C(C)C(O)C(C)C(O)C(C)C(OC(C)=O)C1C (centres undefined) , thanks. 38.6

Name the recorded growth of the molecule listed here: "CCCCCCCC[C@@H]1N[C@@H](C(=O)OC)Cc2c1[nH]c1ccccc21" 96.6

Give growth for the following molecule: "Cc1c[n+](Cc2ccc3ccccc3c2)cn1Cc1ccc2ccccc2c1" 17.7

Read the entry "CCNCCNc1cc(-c2ccc(C(F)(F)F)cc2)c(C#N)c2nc3ccccc3n12" and write its reported growth. -78.1

Entry "Cc1ccc(CNc2ccc3nc(CCC4CCCCC4)[nH]c3c2)cc1" needs its growth filled in; supply it. 58.4

Given "O=c1[nH]c(-c2ccccc2)nc2sc3cc(O)ccc3c12" , respond with its growth. 99.8

Complete the entry with growth for "CCCc1c(OC(=O)c2ccccc2)nc2[nH]c(=O)sc2c1C" 96

Assign growth to the following record: "COc1cc(-c2cncn2-c2ccc(-c3nc4ccc(F)cc4s3)cc2)ccc1F" 86.7

Read the entry "CNC(=O)c1[nH]cc(-c2ccc(OC)cc2)c1-c1cc(OC)c2c(c1OC)OCO2" and write its reported growth. 93.9

Return growth for the following molecule: COc1cc2nc3cc([N+](=O)[O-])ccc3c(NCCNCC(C)O)c2cc1OC (centres undefined) -10.4

Please report growth for the following molecule: "Cn1cc(-c2ccc3nc(-c4ccc(CC(=O)ONc5cc(C(C)(C)C)on5)cc4)cnc3c2)cn1" 67.4

Provide growth value for the following molecule: "O=C(Nc1nc(-c2ccc(Cl)cc2)nc2c1sc(=S)n2-c1ccccc1)C(F)(F)F" 61.5

Supply reported growth belonging to this molecule: "CS(=O)(=O)Nc1cncc(-c2ccc3ncnc(Nc4cncc(Cl)c4)c3c2)c1" 68.2

Supply growth value. Item: "COc1c(B(O)O)cccc1-c1nc2c(F)cc3[nH]ncc3c2c2c1CCCC2" 6.94

Report growth for CC(C)(C)[Si](C)(C)OC1[C@@H](CNC(=O)NC(=O)NC(N)=O)O[C@@H](n2cnc3c(NC(=O)Nc4ccccc4)ncnc32)[C@H]1O[Si](C)(C)C(C)(C)C (some centres undefined) 98.3

Identify measured growth associated with "N#Cc1c(-c2ccc(Cl)cc2)c(C#N)c2c(C#N)c(N)nn2c1N" 88.2
